Origin of the recorded values: ChEMBL document CHEMBL1130063

System: PSN1
measurement.notes: In vitro Growth Inhibitory activity against PSN-1 Human pancreas cancer cell line
Type: functional, cell-based
quantity.name: IC50

line.notation	experimental.system	reported.result
Nc1ccc(-c2cc(=O)c3c(N)c(F)cc(F)c3o2)cc1F	PSN1	> 1 µM

====

Tested on: MKN-28
measurement.notes: In vitro Growth Inhibitory activity against MKN Human stomach cancer cell line
Format: functional, cell-based
quantity.name: IC50

line.notation	reported.result
Nc1ccc(-c2cc(=O)c3c(N)c(F)cc(F)c3o2)cc1F	> 1000 nM

====

Test system: MCF7
measurement.notes: Growth-Inhibitory activity against MCF-7 Cells in the presence of S-9 Mix
Format: functional, cell-based
condition.notes: Homo sapiens
Parameter: IC50. Scope: all listed entries.

line.notation	IC50, nM
Nc1ccc(-c2cc(=O)c3c(N)cccc3o2)cc1	210
Nc1ccc(-c2cc(=O)c3c(N)ccc(O)c3o2)cc1	16000
Nc1ccc(-c2cc(=O)c3c(N)c(F)cc(F)c3o2)cc1F	25
Nc1ccc(-c2cc(=O)c3c(N)ccc(F)c3o2)cc1	170
Nc1ccc(-c2cc(=O)c3c(N)c(F)cc(F)c3o2)cc1	46
Nc1ccc(-c2cc(=O)c3c(N)c(Cl)cc(Cl)c3o2)cc1	610

====

System: SK-BR-3
measurement.notes: In vitro Growth Inhibitory activity against SK-BR-3 Human breast cancer cell line
Type: functional, cell-based
pIC50: −log10 of the molar value.
quantity.name: pIC50

line.notation	reported.result
Nc1ccc(-c2cc(=O)c3c(N)c(F)cc(F)c3o2)cc1F	8.60

====

Test system: A-431
measurement.notes: In vitro Growth Inhibitory activity against A431 Human vulva cancer cell line
Assay type: functional, cell-based
pIC50: −log10 of the molar value.
quantity.name: pIC50

line.notation	quantity.name	reported.result
Nc1ccc(-c2cc(=O)c3c(N)c(F)cc(F)c3o2)cc1F	pIC50	< 6.00

====

System: MCF7
measurement.notes: Growth-Inhibitory activity against MCF-7 Cells in the presence of S-9 Mix
Format: functional, cell-based
condition.notes: Homo sapiens
Assign labels as follows, please: TRUE for IC50 below 100 nM; FALSE for IC50 equal to or exceeding 100 nM.

line.notation	label
Nc1ccc(-c2cc(=O)c3c(N)c(Cl)ccc3o2)cc1	FALSE
Cc1ccc(N)c2c(=O)cc(-c3ccc(N)c(F)c3)oc12	FALSE
Cc1cc(C)c2oc(-c3ccc(N)c(F)c3)cc(=O)c2c1N	FALSE
Nc1ccc(-c2cc(=O)c3c(N)ccc(Cl)c3o2)cc1	FALSE
Nc1c(F)cc(-c2cc(=O)c3c(N)c(F)cc(F)c3o2)cc1F	TRUE
Nc1ccc(-c2cc(=O)c3c(N)c(F)ccc3o2)cc1	FALSE
